Tested on: OVCAR-5 ovarian
ASSAY_PROTOCOL: NCI tumour cell line growth inhibition, 48 h
QUANTITY: TGI

Input line: Consider the molecule `CCCCCC/C=C/C#CCCCCCCCC(=O)O` . State its measured TGI.
Output line: > 100 µM

Input line: Consider the molecule CC(=O)N1C(C(=O)NN2CCOCC2)CSC1c1ccccc1 (stereo unspecified) . State its measured TGI.
Output line: > 100 µM

Input line: Consider the molecule `O=C(O)c1cc(N=Nc2ccc([N+](=O)[O-])cc2)ccc1O` . State its measured TGI.
Output line: > 100 µM

Input line: Consider the molecule CC(=O)C(N1CCCCC1)C(O)(C(F)(F)F)C(F)(F)F (stereo unspecified) . State its measured TGI.
Output line: > 100 µM

Input line: Consider the molecule `NC(N)=NN=c1c(=O)c2ccccc2c1=O` . State its measured TGI.
Output line: 32.5 µM

Input line: Consider the molecule C/C=C1/CN2CCC34C(=C(C(=O)OC)C1CC23)Nc1ccc(O)cc14 (stereo unspecified) . State its measured TGI.
Output line: > 100 µM
